Tested on: Fibroblast
MEASUREMENT_DESCRIPTION: Multiplex assay against human fibroblast
Type: toxicity, cell-based
DETAILS: 24 h, 1 µM, compound concentration 1 uM, replicate 2
Checkbox rule: Population Fragmented Nuclei (%) lower than 10% = true (1); Population Fragmented Nuclei (%) not lower than 10% = false (0).

compound="CCOc1cc2ncc(C#N)c(Nc3ccc(OCc4ccccn4)c(Cl)c3)c2cc1NC(=O)/C=C/CN(C)C [NERATINIB]" target=Fibroblast classification="true (1)"
compound=CCc1cccc(CC)c1NC(=O)c1nn(C)c2c1CCc1cnc(Nc3ccc(N4CCN(C)CC4)cc3OC)nc1-2 target=Fibroblast classification="false (0)"
compound="CCCS(=O)(=O)Nc1ccc(F)c(C(=O)c2c[nH]c3ncc(Cl)cc23)c1F [PLX-4720]" target=Fibroblast classification="false (0)"
compound=COC(=N)c1nc2ccc3ncnc(Nc4ccc(OC)cc4F)c3c2s1 target=Fibroblast classification="false (0)"
compound="COc1cc2ncnc(Nc3ccc(F)c(Cl)c3)c2cc1NC(=O)/C=C/CN1CCCCC1 [DACOMITINIB ANHYDROUS]" target=Fibroblast classification="false (0)"
compound=O=C1N/C(=N/c2ccccc2F)S/C1=C\c1ccc(C(=O)O)cc1 target=Fibroblast classification="true (1)"
compound=CCc1cccc(CC)c1NC(=O)c1nn(C)c2c1CCc1cnc(Nc3ccc(C(=O)NC4CCN(C)CC4)cc3OC(F)(F)F)nc1-2 target=Fibroblast classification="true (1)"
compound=Cl.Oc1ccc2c3c1O[C@H]1c4[nH]c5c(c4C[C@@]4(O)[C@@H](C2)N(CC2CC2)CC[C@]314)C[C@@]1(O)[C@H]2Cc3ccc(O)c4c3[C@@]1(CCN2CC1CC1)[C@H]5O4 target=Fibroblast classification="true (1)"
compound=CCn1c(=O)c(-c2ccc(-c3cncs3)cc2Cl)cc2cnc(Nc3ccc(N4CCN(C)CC4)cc3)nc21 target=Fibroblast classification="false (0)"
compound="O=C(Cc1ccc(-c2ccc(OCCN3CCOCC3)cc2)cn1)NCc1ccccc1 [TIRBANIBULIN]" target=Fibroblast classification="false (0)"
compound=CCNc1cc(N[C@H]2CC[C@H](O)CC2)nc(Nc2ccc3c(ccn3Cc3ccccc3)c2)n1 target=Fibroblast classification="false (0)"
compound="COc1ccc(-c2ccc3c(N4CCOCC4)nc(N4C[C@@H](C)O[C@@H](C)C4)nc3n2)cc1CO [Ku-0063794]" target=Fibroblast classification="false (0)"
compound=Cc1ccc2nc(NCCN)c3ncc(C)n3c2c1.O=C(O)C(F)(F)F.O=C(O)C(F)(F)F target=Fibroblast classification="false (0)"
compound=S=C(NCCCc1c[nH]cn1)NCCCN(Cc1ccc(Cl)c(Cl)c1)c1ccc(Br)cn1 target=Fibroblast classification="false (0)"
compound=Cc1ccc(C(=O)Nc2cccc(C(F)(F)F)c2)cc1Nc1nc(-c2cccnc2)nc2c1cnn2C target=Fibroblast classification="false (0)"
compound="C=C1/C(=C\\C=C2/CCC[C@]3(C)[C@@H]([C@H](C)/C=C/[C@H](C)C(C)C)CC[C@@H]23)C[C@@H](O)C[C@@H]1O [DOXERCALCIFEROL]" target=Fibroblast classification="true (1)"
compound=Cc1cc(C)c(S(=O)(=O)N(Cc2ccc(-c3cccc(S(C)(=O)=O)c3)cc2)Cc2ccc(C(F)(F)F)o2)c(C)c1 target=Fibroblast classification="false (0)"
compound="C=CCn1c(=O)c2cnc(Nc3ccc(N4CCN(C)CC4)cc3)nc2n1-c1cccc(C(C)(C)O)n1 [ADAVOSERTIB]" target=Fibroblast classification="false (0)"
compound=Cl.O=c1c2cccn2c2ccccc2n1CCCN1CCC(c2ccc(Cl)cc2)CC1 target=Fibroblast classification="false (0)"
compound="Cc1cn(-c2cc(NC(=O)c3ccc(C)c(Nc4nccc(-c5cccnc5)n4)c3)cc(C(F)(F)F)c2)cn1 [NILOTINIB]" target=Fibroblast classification="false (0)"
compound="COc1cccc2cc(-c3nc([C@H]4CC[C@H](C(=O)O)CC4)n4ncnc(N)c34)[nH]c12 [OSI-027]" target=Fibroblast classification="false (0)"
compound="CN(C)C(=O)C(CCN1CCC(O)(c2ccc(Cl)cc2)CC1)(c1ccccc1)c1ccccc1.Cl [LOPERAMIDE HYDROCHLORIDE]" target=Fibroblast classification="true (1)"
compound="CCn1cc(-c2ccnc3[nH]c(-c4cccc(CN(C)C)c4)cc23)c(-c2ccc(NC(=O)N(C)C)cc2)n1 [GSK-1070916]" target=Fibroblast classification="false (0)"
compound=CCN1CCN(Cc2ccc(Nc3ncc(F)c(-c4cc(F)c5nc(C)n(C(C)C)c5c4)n3)nc2)CC1.CS(=O)(=O)O target=Fibroblast classification="false (0)"
compound=COc1cc(N2CCN(C)CC2)ccc1Nc1ncc2c(n1)N(C)c1ccccc1C(=O)N2C target=Fibroblast classification="true (1)"
compound=CCCS(=O)(=O)c1nc(NC2CC2)cc(-c2ccc3c(ccn3C3CC(C)(C)NC(C)(C)C3)c2)n1 target=Fibroblast classification="false (0)"
compound="CN1CCC(=C2c3ccccc3CC(=O)c3sccc32)CC1.O=C(O)/C=C/C(=O)O [KETOTIFEN FUMARATE]" target=Fibroblast classification="true (1)"
compound=Cl.O=C(c1ccc(Nc2nccc(-c3cc4ccccc4s3)n2)cc1)N1CCC(N2CCCC2)CC1 target=Fibroblast classification="false (0)"
compound=CCOc1cc(C(=O)N2CCC(N3CCN(C)CC3)CC2)ccc1Nc1ncc2c(n1)N(C1CCCC1)c1ccccc1C(=O)N2C target=Fibroblast classification="false (0)"
compound="CCOC(=O)c1c(C)[nH]c2ccc3c(c12)CN1CCc2cc(OC)ccc2C1O3 (stereo not drawn)" target=Fibroblast classification="true (1)"
compound=O=C(Nc1ccc(Cl)cc1)Nc1cccc(-c2cccc(N3CCCC3)n2)c1 target=Fibroblast classification="false (0)"
compound="CN1C2CCC1CC(OC(c1ccc(F)cc1)c1ccc(F)cc1)C2.Cl (stereo not drawn)" target=Fibroblast classification="true (1)"
compound=COc1ccc(S(=O)(=O)N(CCO)c2ccccc2CN(C)C/C=C/c2ccc(Cl)cc2)cc1.O=P(O)(O)O target=Fibroblast classification="false (0)"
